Target: nk1 receptor (Meriones unguiculatus)
Construct: from tissue; host or cells: living gerbil, central NK1 receptors (agonist infused icv)
Sequence (Q5DUB1 whole entry, the tested form may be a part): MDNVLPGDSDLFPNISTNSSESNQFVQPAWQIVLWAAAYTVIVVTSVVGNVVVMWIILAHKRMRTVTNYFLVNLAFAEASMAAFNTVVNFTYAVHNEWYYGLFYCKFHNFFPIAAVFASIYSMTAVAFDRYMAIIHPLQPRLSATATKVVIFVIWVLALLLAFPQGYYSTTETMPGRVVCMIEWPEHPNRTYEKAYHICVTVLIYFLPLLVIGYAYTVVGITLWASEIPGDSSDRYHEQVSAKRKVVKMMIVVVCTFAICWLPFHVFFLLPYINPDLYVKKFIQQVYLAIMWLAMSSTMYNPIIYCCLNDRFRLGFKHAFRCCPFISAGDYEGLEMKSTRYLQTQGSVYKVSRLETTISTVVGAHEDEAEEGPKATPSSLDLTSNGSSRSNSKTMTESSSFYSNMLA
Test: gerbil foot tapping model (hind foot tapping induced by icv NK1 agonist)
Assay type: in vivo
Conditions: oral administration, one hour before icv NK1 agonist; dose inhibiting tapping by 50%
Result Type: ED50(mg/kg po) (mg/kg)

Example results:
>>> observed_measurement("CC(=O)O.Cc1cc(F)ccc1[C@H]1CNCCN1C(=O)N(C)[C@@H](C)c1cc(C(F)(F)F)cc(C(F)(F)F)c1")
0.04
>>> observed_measurement("Cc1cc(F)ccc1[C@H]1CN(C(=O)CN)CCN1C(=O)N(C)Cc1cc(C(F)(F)F)cc(C(F)(F)F)c1.Cl")
0.065

(1) CS(=O)(=O)O.Cc1cc(F)ccc1[C@H]1CNCCN1C(=O)N(C)[C@H](C)c1cc(C(F)(F)F)cc(C(F)(F)F)c1
(2) Cc1cc(F)ccc1[C@H]1CNCCN1C(=O)N(C)C(C)(C)c1cc(C(F)(F)F)cc(C(F)(F)F)c1.Cl
stdin: Quick check, higher ED50(mg/kg po) between 1 and 2 ? Kindly state the label of the option you pick.
stdout: 2
(2: 0.4 mg/kg, 1: 0.05 mg/kg)

###

Molecular target: recombinant human NK1 receptors (Homo sapiens)
Construct: expressed in transfected cells; host or cells: Chinese Hamster Ovary (CHO) cells, membrane preparation
Assay: NK1-receptor binding affinity: displacement of [3H]-substance P from CHO cell membranes
Settings: average of at least two determinations, [3H]-substance P displacement, read-out: pki (negative logarithm of the inhibition constant Ki of displacer ligands) (converted)
Structures can show the parent of a compound that is named as a salt.
Result Type: Ki (nM)

Example results:
>>> observed_measurement("Cc1cc(F)ccc1C1CNCC(C)N1C(=O)N(C)Cc1cc(C(F)(F)F)cc(C(F)(F)F)c1.Cl (centres unmarked) [Example 24, hydrochloride salt]")
0.661
>>> observed_measurement("Cc1cc(F)ccc1[C@H]1CNCCN1C(=O)N(C)C(C)(C)c1cc(C(F)(F)F)cc(C(F)(F)F)c1.Cl [Example 21, hydrochloride]")
1.12

(A) Cc1cc(F)ccc1[C@H]1CN(C(=O)CN)CCN1C(=O)N(C)Cc1cc(C(F)(F)F)cc(C(F)(F)F)c1.Cl [Example 20, hydrochloride]
(B) Cc1cc(F)ccc1[C@H]1CNCCN1C(=O)N1CCCCC1c1cc(C(F)(F)F)cc(C(F)(F)F)c1 (single isomer, unassigned) [Example 29, hydrochloride]
stdin: Which record shows the lower Ki: the first, A , or the second, B ? Kindly state the label of the option you pick.
stdout: A
(A: 0.347 nM, B: 1.35 nM)

###

Molecular target: recombinant human NK1 receptors (Homo sapiens, UniProt P25103)
Construct: expressed in transfected cells; host or cells: Chinese Hamster Ovary (CHO) cells, membrane preparation
Sequence (P25103 whole entry): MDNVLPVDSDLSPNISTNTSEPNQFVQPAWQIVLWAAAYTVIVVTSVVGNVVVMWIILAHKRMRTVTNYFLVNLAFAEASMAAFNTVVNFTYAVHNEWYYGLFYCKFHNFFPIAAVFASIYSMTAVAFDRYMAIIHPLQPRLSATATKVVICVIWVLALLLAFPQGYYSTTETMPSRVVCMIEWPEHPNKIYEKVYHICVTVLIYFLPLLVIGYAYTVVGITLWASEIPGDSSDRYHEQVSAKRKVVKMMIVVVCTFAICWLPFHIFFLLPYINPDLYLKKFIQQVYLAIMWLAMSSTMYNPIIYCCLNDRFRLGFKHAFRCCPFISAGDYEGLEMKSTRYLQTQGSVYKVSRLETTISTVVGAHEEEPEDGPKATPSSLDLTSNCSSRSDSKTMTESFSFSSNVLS
Experiment: NK1-receptor binding affinity: displacement of [3H]-substance P from CHO cell membranes
Conditions: average of at least two determinations, [3H]-substance P displacement, read-out: pki (negative logarithm of the inhibition constant Ki of displacer ligands) (converted)
Procedure: Thus ligand binding was performed in 0.4 ml of 50 mM HEPES, pH 7.4, containing 3 mM MnCl2, 0.02% BSA, 0.5 nM [^3H]Substance P (30+56 Ci/mmol, Amersham), a final membrane concentration of 25 μg of protein/ml, and the test compounds. The incubation proceeded at room temperature for 40 min. […]
Where a name gives a salt, the structure may show the parent alone.
Result Type: Ki (nM)

Example results:
>>> observed_measurement("Cc1cc(F)ccc1[C@H]1CNCCN1C(=O)N(C)Cc1cc(C(F)(F)F)cc(C(F)(F)F)c1 [Example 8, hydrochloride]")
0.427
>>> observed_measurement("C=CCC(c1cc(C(F)(F)F)cc(C(F)(F)F)c1)N(C)C(=O)N1CCNCC1c1ccc(F)cc1C (single isomer, unassigned) [Example 30, hydrochloride]")
1.66
>>> observed_measurement("Cc1cc(F)ccc1C1CNCCN1C(=O)N1CC=CCC1c1cc(C(F)(F)F)cc(C(F)(F)F)c1 (single isomer, unassigned) [Example 28, hydrochloride]")
0.49
>>> observed_measurement("Cc1cc(F)ccc1C1CNCCN1C(=O)N(C)C(c1cc(C(F)(F)F)cc(C(F)(F)F)c1)C(C)C (single isomer, unassigned) [Example 32, hydrochloride]")
1.02

(a) Cc1cc(C2CNCCN2C(=O)N(C)Cc2cc(C(F)(F)F)cc(C(F)(F)F)c2)ccc1F.Cl (stereo not drawn) [Example 4, hydrochloride]
(b) Cc1cc(F)ccc1[C@H]1CN(CCN)CCN1C(=O)N(C)Cc1cc(C(F)(F)F)cc(C(F)(F)F)c1 [Example 22, dihydrochloride Salt]
stdin: Quick check, higher Ki between a and b ? Kindly state the label of the option you pick.
stdout: a
(a: 4.37 nM, b: 0.407 nM)

Origin of the recorded values: patent USRE39921E1
